Target: T1, mIL2-his (mouse, UniProt P04351 21-169)
T1 construct: also called wild-type mouse IL-2 (with a his-tag); not shown: his-tag
T1 sequence (looked up): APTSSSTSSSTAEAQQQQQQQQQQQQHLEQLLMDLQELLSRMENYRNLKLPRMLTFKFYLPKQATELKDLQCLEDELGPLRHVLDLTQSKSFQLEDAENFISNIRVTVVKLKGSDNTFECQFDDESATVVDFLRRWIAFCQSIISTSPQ
Experiment: ELISA, antibody captured by anti-human IgG, mIL2-his titrated
parameter measured: EC50
# include the unit after the value

Consider the reported EC50 for these binders:
binder	recorded measurement
hS4B6-H6K3 (antibody, V domains shown, full antibody) VH: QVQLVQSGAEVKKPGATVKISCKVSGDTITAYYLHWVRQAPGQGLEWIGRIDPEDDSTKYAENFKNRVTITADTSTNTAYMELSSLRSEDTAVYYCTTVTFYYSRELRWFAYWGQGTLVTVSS VL: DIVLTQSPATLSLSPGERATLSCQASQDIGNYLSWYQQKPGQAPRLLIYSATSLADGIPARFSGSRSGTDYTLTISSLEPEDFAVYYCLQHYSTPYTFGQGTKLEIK	0.0183 mg/L
S4B6 chimeric antibody (antibody, human IgG1, V domains shown, also called chS4B6) VH: EVQLQESGAELVRPGTSVKLSCKVSGDTITAYYLHFVRQRPGQGLEWIGRIDPEDDSTKYAENFKNKATFTADASSNTAYLRLSSLTSEDTATYFCTTVTFYYSRELRWFAYWGQGTLVTVSS VL: DIQVTQSPASLSASLEEIVTITCQASQDIGNYLSWYQQKLGKSPQLLIHSATSLADGVPSRFSGSRSGTQYSLKINRLQVEDTGIYYCLQHYSTPYTFGAGTKLELK	0.0139 mg/L
hS4B6-H1K1 (antibody, V domains shown, full antibody) VH: QVQLQESGPGLVKPSETLSLTCTVSGDTITAYYLHWIRQPPGKGLEWIGRIDPEDDSTKYAENFKNRVTISVDTSKNQFSLKLSSVTAADTAVYYCTTVTFYYSRELRWFAYWGQGTTVTVSS VL: DIVLTQSPGTLSLSPGERATLSCQASQDIGNYLSWYQQKPGQAPRLLIYSATSLADGIPDRFSGSRSGTDYTLTISRLEPEDFAVYYCLQHYSTPYTFGQGTKVEIK	0.0357 mg/L

Then this binder:
Query: Quick check: EC50 of hS4B6-H3K3 (antibody, V domains shown, full antibody) VH: QVTLKESGPVLVKPTQTLTLTCTVSGDTITAYYLHWIRQPPGKALEWIGRIDPEDDSTKYAENFKNRLTFSADTSKNQVVLTMTNMDPVDTATYYCARVTFYYSRELRWFAYWGQGTLVTVSS VL: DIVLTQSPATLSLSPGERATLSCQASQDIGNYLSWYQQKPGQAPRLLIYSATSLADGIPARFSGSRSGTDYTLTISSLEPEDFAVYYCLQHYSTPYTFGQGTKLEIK ?
Result: 0.185 mg/L
